Test system: MEK3
Construct: gene MAP2K3
Conditions: concentration: 1 μM, replicates: in singlicate; n = 1;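 note: KINOMEscan kinase panel screen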
The following compounds are listed with their measured %Inh values.
Give me the value, and tack the unit on after it.

Take a look at these entries with their results.
{"columns": ["COMPOUND", "REPORTED_PROPERTY", "MEASURED_RESULT"],
 "data": [
  ["Cn1cc(-c2ccc3c(c2)CCN3C(=O)Cc2cccc(C(F)(F)F)c2)c2c(N)ncnc21", "%Inh", "0%"],
  ["COC(=O)c1cccc(NC(=O)NCCNc2ccnc(Nc3ccc(F)cc3)n2)c1", "%Inh", "0%"],
  ["Cl.c1ccc(Cn2ccc3cc(Nc4ncnc5ccccc45)ccc32)cc1", "%Inh", "11%"]
]}

Provide one value: measured %Inh of COC(=O)c1c(-c2ccccc2)c2cc(Cl)ccc2c(=O)n1Cc1ccc(S(C)(=O)=O)cc1
9%

Provide one value: measured %Inh of Fc1cccc(COc2ccc(Nc3ncnc4sc(-c5ccc[nH]5)cc34)cc2Cl)c1
0%

Provide one value: measured %Inh of Fc1cccc(COc2ccc(Nc3ncnc4nn5ccccc5c34)cc2Cl)c1
0%

Provide one value: measured %Inh of N#Cc1ccc(Oc2ccc(Nc3ncnc4cc[nH]c34)cc2Cl)cc1
37%

Provide one value: measured %Inh of FC(F)(F)c1ccc(-c2cc(-c3c[nH]nc3-c3ccccn3)ccn2)cc1
0%

Provide one value: measured %Inh of Nc1nccc2scc(-c3ccc4c(c3)CCN4C(=O)Cc3cc(F)ccc3F)c12
0%

Provide one value: measured %Inh of O=C(c1ccc(-c2cc(-c3c[nH]nc3-c3ccccn3)ccn2)cc1)N1CCCC1
20%

Provide one value: measured %Inh of CCCc1ccc(S(=O)(=O)NC2CCN(c3ccnc(Nc4ccc(OC)cc4)n3)C2)cc1 (centres unmarked)
0%

Provide one value: measured %Inh of O=c1cc(N2CCOCC2)nc2n(Cc3cccc(Cl)c3)ccn12
0%

Provide one value: measured %Inh of Fc1ccc(Nc2nccc(-c3c(-c4ccc(Cl)cc4)nn4ncccc34)n2)cc1F
27%

Provide one value: measured %Inh of COc1ccc(NC(=O)Nc2ccc(C)c(-c3ccc(C(=O)Nc4ccncc4)cc3)c2)cc1
0%

###

Test system: CSF1R-autoinhibited
Details: concentration: 1 μM, replicates: in singlicate; n = 1
REPORTED_PROPERTY: %Inh (%)
Output spec: scalar in %, unitless text.

Take a look at these entries with their results.
{"columns": ["MOLECULE", "REPORTED_PROPERTY", "MEASURED_RESULT"],
 "data": [
  ["Cl.Cl.c1ccc(-c2cc3ccncc3cc2OC2CCNCC2)cc1 [GSK1122999]", "%Inh", 5],
  ["O=c1cc(N2CCOCC2)nc2n(Cc3cccc(Cl)c3)ccn12 [GSK2296823]", "%Inh", 0],
  ["Cc1ccc(NC(=O)c2cccc(C#N)c2)cc1-c1ccc(C(=O)Nc2ccncc2)cc1 [GSK1398463]", "%Inh", 0]
]}

Provide one value: measured %Inh of NC(=O)c1sc(-n2cnc3ccccc32)cc1OCc1ccccc1F [GSK1024306]
24

Provide one value: measured %Inh of COC(=O)c1cccc(NC(=O)NCCNc2ccnc(Nc3ccc(F)cc3)n2)c1 [GSK1379883]
0

Provide one value: measured %Inh of Nc1nc(-c2ccc3c(N)n[nH]c3c2)cc(N2CCC[C@@H](C(=O)Nc3ccccc3)C2)n1.O=C(O)C(F)(F)F.O=C(O)C(F)(F)F [GSK2288359]
0

Provide one value: measured %Inh of COc1ccc(NC(=O)c2ccc(-c3cc(-c4nnc(C)o4)ccc3C)cc2)cc1 [GW595885]
7

Provide one value: measured %Inh of CNc1nccc(-c2c(-c3ccc(F)cc3)ncn2C2CCN(C)CC2)n1 [SB-222903]
0

###

System: RSK2(Kin.Dom.1-N-terminal)
Construct: gene RPS6KA3
Conditions: concentration: 1 μM, replicates: in singlicate; n = 1
The following molecules are listed with their measured %Inh values.
Output spec: scalar in %, unitless text.

{"columns": ["MOLECULE", "TARGET_DESC", "REPORTED_PROPERTY", "MEASURED_RESULT"],
 "data": [
  ["Oc1ccc2ncnc(Nc3ccc(OCc4ccccc4)cc3)c2c1 [GI262866]", "RSK2(Kin.Dom.1-N-terminal)", "%Inh", 0],
  ["C[C@@H]1CCN(C(=O)CO)C[C@@H]1N(C)c1ncnc2[nH]ccc12", "RSK2(Kin.Dom.1-N-terminal)", "%Inh", 0]
]}

Note: attention shifts to another entry.
Provide one value: measured %Inh of Fc1ccc(-c2ncn(CCCNCc3ccccc3)c2-c2ccncc2)cc1
0

###

The following compounds are listed with their measured %Inh values.
Tested on: PLK4
Settings: concentration: 1 μM, replicates: in singlicate; n = 1
Output spec: scalar in %, unitless text.

Take a look at these entries with their results.
{"columns": ["COMPOUND", "REPORTED_PROPERTY", "MEASURED_RESULT"],
 "data": [
  ["CC(C)(C)OC(=O)NC1CCCN(c2cc(-c3ccc4c(N)n[nH]c4c3)nc(N)n2)C1 (centres unmarked) [GSK2286096]", "%Inh", 10],
  ["COC(=O)c1cccc(NC(=O)NCCNc2ccnc(Nc3ccc(F)cc3)n2)c1 [GSK1379883]", "%Inh", 0],
  ["Fc1ccc(-c2ncn(CCCNCc3ccccc3)c2-c2ccncc2)cc1", "%Inh", 32],
  ["CCC(CC)(CC)n1cnc2c(N)ncnc21 [SKF-97620]", "%Inh", 7],
  ["OCCOCCn1ccc2ncnc(Nc3ccc(Oc4cccc(Cl)c4)c(Cl)c3)c21", "%Inh", 0]
]}

Provide one value: measured %Inh of COc1ccc(NC(=O)Nc2ccc(C)c(-c3ccc(C(=O)Nc4ccncc4)cc3)c2)cc1 [GSK1398475]
0

Provide one value: measured %Inh of CNc1nccc(-c2c(-c3ccc(F)cc3)ncn2CCCN2CCOCC2)n1 [SB-222516]
0

Provide one value: measured %Inh of C[C@@H]1CCN(C(=O)CO)C[C@@H]1N(C)c1ncnc2[nH]ccc12
3

Provide one value: measured %Inh of CN1CCC(n2cnc(-c3ccc(F)cc3)c2-c2ccnc(NC3CCNCC3)n2)CC1 [SB-229482]
20

Provide one value: measured %Inh of COc1cc2ncnc(Nc3ccc(OCc4ccccc4Br)c(Cl)c3)c2cc1OC.Cl [GI261590]
0

###

Test system: SRPK1
Settings: concentration: 1 μM, replicates: in singlicate; n = 1
REPORTED_PROPERTY: %Inh (%)
Output spec: scalar in %, unitless text.

{"columns": ["COMPOUND", "TARGET_DESC", "%Inh, %"],
 "data": [
  ["Clc1cc(Nc2ncnc3cc[nH]c23)ccc1OCc1ccccn1", "SRPK1", 0]
]}

Provide one value: measured %Inh of N#Cc1ccc(Oc2ccc(Nc3ncnc4cc[nH]c34)cc2Cl)cc1
0

Provide one value: measured %Inh of Nc1nc(-c2ccc3c(N)n[nH]c3c2)cc(N2CCCCC2)n1 [GSK2228768]
45

Provide one value: measured %Inh of Nc1nc(-c2cccnc2)c(-c2ccnc3ccccc23)s1 [GW684083]
3

Provide one value: measured %Inh of CSc1nn2c(=O)cc(N3CCOCC3)nc2n1Cc1cccc(Cl)c1Cl [GSK2347225]
13

Provide one value: measured %Inh of Cc1ccc(NC(=O)c2cccc(C#N)c2)cc1-c1ccc(C(=O)Nc2ccncc2)cc1 [GSK1398463]
11

Provide one value: measured %Inh of Cn1cc(-c2ccc3c(c2)CCN3C(=O)Cc2cccc(C(F)(F)F)c2)c2c(N)ncnc21 [GSK2606414]
24

###

Tested on: BLK
Conditions: concentration: 1 μM, replicates: in singlicate; n = 1
The following compounds are listed with their measured %Inh values.
Output spec: scalar in %, unitless text.

Take a look at these entries with their results.
{"columns": ["COMPOUND", "REPORTED_PROPERTY", "MEASURED_RESULT"],
 "data": [
  ["CC(=O)Nc1n[nH]c2ncc(-c3ccccc3)cc12", "%Inh", 28],
  ["CCC(CC)(CC)n1cnc2c(N)ncnc21", "%Inh", 0],
  ["COc1ccc(NC(=O)Nc2ccc(C)c(-c3ccc(C(=O)Nc4ccncc4)cc3)c2)cc1", "%Inh", 28],
  ["Cc1ccc(O)cc1Nc1cc(C(F)(F)F)nc2ccc(-c3ccncc3)cc12", "%Inh", 12]
]}

Quote %Inh with test system BLK for Nc1nc(-c2ccccn2)c(-c2ccnc3ccccc23)s1
9

Quote %Inh with test system BLK for CCCc1ccc(S(=O)(=O)NC2CCN(c3ccnc(Nc4ccc(OC)cc4)n3)C2)cc1 (stereo not drawn)
30

Quote %Inh with test system BLK for Fc1cccc(COc2ccc(Nc3ncnc4sc(-c5ccc[nH]5)cc34)cc2Cl)c1
0
